As shown below, each of these molecules has a reported growth value.
- Test system: SW-620 colon
- test_name: NCI-60 one-dose screen, 48 h (100 = growth as untreated, 0 = no growth, -100 = all killed)
- experimental_setup: 10 µM unless noted
The panel holds about 83,000 compounds, 20% with a hit somewhere; the sample as a whole holds those more often.
Record the value in %, omitting the unit from your answer.

COc1cc(/C=C2\CCC/C(=C\c3cc(CN4CCCCC4)c(O)c(OC)c3)C2=O)cc(CN2CCCCC2)c1O : 71.4
Cc1[nH]c2ccccc2c(=O)c1CC=C(Cl)Cl : 10.5
CCn1c(-c2nonc2Nc2ccc(OC)cc2)nc2ccccc21 : 104
COC(=O)/C(=C\c1c(-c2ccccc2)[nH]c2ccccc12)S(C)(=O)=O : 20.4

Okay, next one:
Data request: Query (molecule): Nc1nc(-c2ccccc2Br)nn1-c1nc2ccccc2s1 ; field requested: growth
Data returned: 104

====

- Test system: HT29 colon
- test_name: NCI-60 one-dose screen, 48 h
- experimental_setup: 10 µM unless noted
The panel holds about 83,000 compounds, 20% with a hit somewhere; the sample as a whole holds those more often. The source made the active and inactive calls. The calls were made as follows: active = growth percent below 10; inactive = the rest.
Outcome field: choose from true (1) (active), false (0) (inactive)

O=C(Nc1ccc(Cl)cc1F)c1cc(Br)ccc1O : false (0)
c1ccc2cc3c(Nc4ccc(N5CCOCC5)cc4)ccnc3cc2c1 : false (0)
CN(C)CCNc1cc(-c2ccccc2)nc2ccccc12 : true (1)

Data request: # fetch the recorded call for CCn1c(-c2nonc2Nc2ccc(OC)cc2)nc2ccccc21 here
Data returned: false (0)

====

- System: M14 melanoma
- test_name: NCI-60 one-dose screen, 48 h
- experimental_setup: 10 µM unless noted
The panel holds about 83,000 compounds, 20% with a hit somewhere; the sample as a whole holds those more often. The source made the active and inactive calls. Rule for the calls: active = growth percent below 10; inactive = the rest.
Outcome field: choose from active, inactive

O=C1OC(c2ccccc2)(c2ccccc2)c2ccsc21 : inactive

Data request: # fetch the recorded call for COC(=O)C1=C(C)NC(C)=C(C(=O)OC)C(N2C(=O)CCC2=O)C1 (stereo unspecified) here
Data returned: inactive

Data request: # iterate: O=NN(Cc1cccnc1)C(=O)NC1CCCCC1
Data returned: inactive

====

- Test system: HCC-2998 colon
- test_name: NCI-60 one-dose screen, 48 h
- experimental_setup: 10 µM unless noted
About 83,000 compounds went through this panel and 20% of them were active in at least one assay; those are over-represented in the sample as a whole. Calls of active or inactive are those of the source. Rule for the calls: active = growth percent below 10; inactive = the rest.
Outcome field: choose from T = active, F = inactive

Consider the worked cases shown below.
Nc1ncnc(N)c1NC(=O)c1ccc(OCc2ccccc2)cc1 : F
COc1ccc(C2Nc3ncnc(N)c3N=C3c4ccccc4C(=O)C32)cc1 (stereo not given) : F
COc1ccc(/C=C2\NC(=O)NC2=O)cc1O : F
COc1ccc(Br)c(/C=C2\SC(=Nc3ccc(O)cc3)NC2=O)c1 : F
O=C1c2cc(Cl)ccc2Oc2cc([N+](=O)[O-])ccc2N1c1ccc(F)cc1F : F

Data request: # fetch the recorded call for O=C(/C=C/c1ccc(F)cc1)c1ccc(Nc2nc(NCCO)nc(Nc3ccc(Cl)cc3)n2)cc1 here
Data returned: F

Data request: # iterate: CC1(C)CC2(C)OC2C2(C1)N=NC(=Nc1ccccc1)O2 (stereo not given)
Data returned: F

====

- Tested on: 786-0 renal
- test_name: NCI-60 one-dose screen, 48 h
- experimental_setup: 10 µM unless noted
Compounds without any hit were thinned out: in the full panel of roughly 83,000, 20% have a hit. Active and inactive are the calls of the source. How the source made its calls: active means growth percent below 10; inactive means the rest.
Outcome field: choose from 1 for active, -1 for inactive

CN1C(=O)N(C)C2(c3ccccc3)n3c(s/c(=C\c4ccccc4)c3=O)=NNC12c1ccccc1 (stereo not given) : -1
O=C1/C(=C/c2ccc(O)cc2)COc2ccc(O)c(O)c21 : -1

Data request: # fetch the recorded call for CCCCN1CCN(c2ccc3nc(-c4ccc5nc(-c6ccc(OC)c(OC)c6)[nH]c5c4)[nH]c3c2)CC1 here
Data returned: 1

Data request: # iterate: O=C(O)CCC(=O)c1ccc(C2CCCCCC2)cc1
Data returned: -1

Data request: # iterate: O=C(Nc1ccc(N2CCNCC2)cc1)c1[nH]ncc1Nc1ncnc2sc3c(c12)CCC3
Data returned: 1

====

- Test system: MCF7 breast
- test_name: NCI-60 one-dose screen, 48 h (100 = growth as untreated, 0 = no growth, -100 = all killed)
- experimental_setup: 10 µM
About 83,000 compounds went through this panel and 20% of them were active in at least one assay; those are over-represented in the sample as a whole. Activity calls are given as the source filed them. Rule for the calls: active = growth percent below 10; inactive = the rest.
As shown below, each of these compounds has a reported growth value.

Data request: Query (compound): N#CC(C#N)=Cc1c(-c2ccccc2)[nH]c2ccccc12 ; field requested: growth
Data returned: 15.7% (inactive)

Data request: # iterate: O=C(Nc1ccc(Cl)cc1)c1cc2ccccc2cc1OP(=O)(O)O
Data returned: 54% (inactive)

Data request: # iterate: CCOC(=O)c1cc2c(n1Cc1cc(OC)c(OC)c(OC)c1)-c1oncc1CCC2
Data returned: 7.45% (active)

Data request: # iterate: O=C(CSc1ccc2nnc(-c3cccc(F)c3)n2n1)Nc1ccc2c(c1)OCO2
Data returned: 36.4% (inactive)

Data request: # iterate: O=C1Nc2ccccc2/C1=C/c1cccs1
Data returned: 60.8% (inactive)

Data request: # iterate: C=C(C)CCC(C)N1CCC(N2CCC(C(=O)NCCc3ccccc3)CC2)CC1 (stereo unspecified)
Data returned: 9.23% (active)

Data request: # iterate: COc1cc2nc(NC3CCCC3)nc(NC3CCN(C(C)C)CC3)c2cc1OC
Data returned: 39.8% (inactive)

Data request: # iterate: COc1cc2nc(NC3CCC3)nc(NC3CCN(C(C)C)CC3)c2cc1OC
Data returned: 29.5% (inactive)

Data request: # iterate: COc1ccc(/C=C/C(=O)c2c(C)nc3ccccc3c2/C=C/c2ccccc2)cc1O
Data returned: 18.2% (inactive)

Data request: # iterate: Nc1nc(N)c2c(n1)NC1(C=C(O)c3ccccc31)C1=C(N2)c2ccccc2C1=O (stereo unspecified)
Data returned: 97.1% (inactive)

Data request: # iterate: O=C1c2ccccc2C(=O)c2c1ccc1[nH]c(CCl)nc21
Data returned: 6.47% (active)

====

As shown below, each of these compounds has a reported growth value.
- System: DU-145 prostate
- test_name: NCI-60 one-dose screen, 48 h (100 = growth as untreated, 0 = no growth, -100 = all killed)
- experimental_setup: 10 µM unless noted
Compounds without any hit were thinned out: in the full panel of roughly 83,000, 20% have a hit.
Record the value in %, omitting the unit from your answer.

Sample records with growth:
O=c1oc2ccc(F)cc2c(=O)n1-c1ccc(F)cc1F : 28.3
COC(=O)/C(CCC=C(C)C)=C1\[C@@H](OC(C)=O)C[C@@]2(C)[C@H]1CC(=O)N[C@H]1[C@@]3(C)CCNC(=O)[C@@H](C)[C@@H]3CC[C@@]12C : 107
COc1ccc(/C=C2/SC(=O)N(CC(=O)N3CCN(c4cc5c(cc4F)c(=O)c(C(=O)O)cn5C4CC4)CC3)C2=O)cc1 : 115

Okay, next one:
Data request: Query (compound): Cn1nc(C(F)(F)F)c(-c2ccc(Cl)c(C(F)(F)F)c2)c1-c1ccc(OCc2ccc(Cl)cc2)cc1O ; field requested: growth
Data returned: 19

====

- Test system: KM12 colon
- test_name: NCI-60 one-dose screen, 48 h
- experimental_setup: 10 µM unless noted
The panel holds about 83,000 compounds, 20% with a hit somewhere; the sample as a whole holds those more often. The source made the active and inactive calls. Rule for the calls: active = growth percent below 10; inactive = the rest.
Outcome field: choose from 1 for active, -1 for inactive

Consider the worked cases shown below.
CCCCN1CCN(c2ccc3nc(-c4ccc5nc(-c6ccc(OC)c(OC)c6)[nH]c5c4)[nH]c3c2)CC1 : 1
CCOc1cccc(/C=N\Nc2nc(=O)cc(C(=O)OC)s2)c1O : -1
c1ccc(-c2ccc(-c3nc4ccccc4[nH]3)cc2)cc1 : -1

Data request: # fetch the recorded call for CCCC(c1nnnn1C1CCCCC1)N1CCN(C(=O)c2ccco2)CC1 (stereo unspecified) here
Data returned: -1

Data request: # iterate: O=C(/C=C/c1ccccn1)c1ccc(OCc2nnc(-c3ccc(Cl)cc3)o2)cc1
Data returned: 1

Data request: # iterate: Cc1cccc(NC(=O)c2sc3nc4c(cc3c2N)CCCC4)c1C
Data returned: 1

Data request: # iterate: O=C1Nc2ccccc2/C1=C/c1cccs1
Data returned: -1

Data request: # iterate: COc1ccc(Nc2cc(C)nc(NCc3ccccc3)n2)cc1
Data returned: 1

Data request: # iterate: COc1nccc2cc3c(=O)n4c(cc5ccccc54)c(=O)n3c12
Data returned: -1

Data request: # iterate: COc1ccc(C2=C(c3cccc(OC)c3)C(=O)c3ccc(C)nc3C2=O)cc1
Data returned: -1

Data request: # iterate: COc1ccc(/C=c2\sc3n(c2=O)NC2C(N=3)N(C)C(=O)N2C)cc1 (stereo unspecified)
Data returned: -1
